- targetUnderTest: Muscarinic acetylcholine receptor M5 (Rattus norvegicus, UniProt P08911)
- Sequence (P08911 whole entry): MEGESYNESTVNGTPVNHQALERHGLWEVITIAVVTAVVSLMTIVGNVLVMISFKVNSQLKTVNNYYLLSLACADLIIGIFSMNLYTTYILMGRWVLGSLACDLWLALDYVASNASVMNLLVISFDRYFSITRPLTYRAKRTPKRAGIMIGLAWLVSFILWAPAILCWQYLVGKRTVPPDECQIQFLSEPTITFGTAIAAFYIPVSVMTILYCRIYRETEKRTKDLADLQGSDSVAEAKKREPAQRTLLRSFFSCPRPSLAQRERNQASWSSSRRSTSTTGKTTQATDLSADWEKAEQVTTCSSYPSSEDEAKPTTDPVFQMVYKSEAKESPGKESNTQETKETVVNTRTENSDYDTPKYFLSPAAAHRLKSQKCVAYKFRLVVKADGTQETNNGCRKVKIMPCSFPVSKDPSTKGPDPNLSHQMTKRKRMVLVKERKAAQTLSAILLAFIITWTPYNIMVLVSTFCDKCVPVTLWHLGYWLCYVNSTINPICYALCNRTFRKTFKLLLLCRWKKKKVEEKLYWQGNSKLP
- testDetails: Activity at rat muscarinic acetylcholine receptor subtype 5 expressed in CHO cells by calcium mobilization assay
pEC50: −log10 of the molar value.

chemicalString	targetUnderTest	pEC50
CCN(Cc1ccccc1C(F)(F)F)C(=O)C1CCN(S(=O)(=O)c2ccc3[nH]ncc3c2)CC1	Muscarinic acetylcholine receptor M5 (Rattus norvegicus, UniProt P08911)	6.21

###

- targetUnderTest: Muscarinic acetylcholine receptor M5 (Homo sapiens)
- Sequence (P08912 whole entry): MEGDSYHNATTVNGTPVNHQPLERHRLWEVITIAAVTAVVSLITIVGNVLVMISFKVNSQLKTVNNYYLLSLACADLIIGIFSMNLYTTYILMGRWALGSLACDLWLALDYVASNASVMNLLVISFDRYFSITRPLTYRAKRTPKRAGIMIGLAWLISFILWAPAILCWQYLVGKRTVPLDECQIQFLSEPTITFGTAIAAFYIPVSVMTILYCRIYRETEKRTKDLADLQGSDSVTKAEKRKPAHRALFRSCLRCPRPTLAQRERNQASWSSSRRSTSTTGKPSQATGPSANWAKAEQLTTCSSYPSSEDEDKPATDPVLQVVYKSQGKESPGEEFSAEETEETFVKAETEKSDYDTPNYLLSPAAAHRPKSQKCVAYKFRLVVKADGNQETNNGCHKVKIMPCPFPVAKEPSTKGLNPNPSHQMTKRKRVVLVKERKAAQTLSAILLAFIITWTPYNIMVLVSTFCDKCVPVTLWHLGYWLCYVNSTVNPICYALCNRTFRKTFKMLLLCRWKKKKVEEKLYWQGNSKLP
- testDetails: Positive allosteric modulator activity at human muscarinic acetylcholine receptor subtype 5 expressed in CHO cells by calcium mobilization assay
- Assay type: functional, cell-based
- measurementSetup: read-out: EC50
reportedMetric: EC50 (nM)

chemicalString	censoringSign	measValue
CCN(C(=O)C1CCN(S(=O)(=O)c2ccc3cn[nH]c3c2)CC1)[C@H](C)c1ccccc1	=	760
CCN(C(=O)C1CCN(S(=O)(=O)c2ccc3occc3c2)CC1)[C@H](C)c1ccccc1	=	930
O=C(C1CCN(S(=O)(=O)c2ccc3[nH]ncc3c2)CC1)N(Cc1ccccc1C(F)(F)F)C1CCC1	=	1800
CCN(Cc1ccccc1)C(=O)C1CCN(S(=O)(=O)c2c(C)noc2C)CC1	>	10000
CCN(Cc1ccccc1F)C(=O)C1CCN(S(=O)(=O)c2ccc3cn[nH]c3c2)CC1	=	2100
CCN(Cc1ccccc1)C(=O)C1CCN(S(=O)(=O)c2ccc3cn[nH]c3c2)CC1	=	1700
CCCN(Cc1ccccc1C(F)(F)F)C(=O)C1CCN(S(=O)(=O)c2ccc3[nH]ncc3c2)CC1	=	160
CCN(Cc1ccccc1)C(=O)C1CCN(S(=O)(=O)c2ccccc2)CC1	=	6200
CCN(Cc1ccccc1)C(=O)C1CCN(S(=O)(=O)c2cccnc2)CC1	>	10000
